target: DCAF15/RBM39 (Homo sapiens, UniProt Q14498+Q66K64); test: AlphaLISA compound-induced DCAF15-RBM39 ternary complex formation; details: His-tagged DCAF15 complex and biotin-carrying RBM39
pEC50: −log10 of the molar value.
Endpoint Label: pEC50

Enquiry: Look up and report measured pEC50 for this entry: "CN1CCN(CCCOc2cccc(S(=O)(=O)Nc3ccc(Cl)c4c(Cl)c[nH]c34)c2)CC1"
Return: > 6.00

---
Enquiry: Look up and report measured pEC50 for this entry: "CCOc1cc(N2CCC[C@H](COc3cccc(S(=O)(=O)Nc4ccc(Cl)c5c(Cl)c[nH]c45)c3)C2)ncn1"
Return: 5.00 to 6.00

Enquiry: Look up and report measured pEC50 for this entry: "O=C(N[C@H]1CCCCNC1=O)c1cccc(S(=O)(=O)Nc2ccc(Cl)c3c(Cl)c[nH]c23)c1F"
Return: > 6.00

Enquiry: Look up and report measured pEC50 for this entry: "NC(=O)c1cc(Cl)cc(S(=O)(=O)Nc2ccc(Cl)c3c(Cl)c[nH]c23)c1"
Return: 5.00 to 6.00

Enquiry: Look up and report measured pEC50 for this entry: "Cc1nc2c(n1C)CCN(C(=O)c1cccc(S(=O)(=O)Nc3ccc(Cl)c4c(Cl)c[nH]c34)c1F)C2"
Return: > 6.00

Enquiry: Look up and report measured pEC50 for this entry: "O=C(NCCOCC1CC1)c1ccc(S(=O)(=O)Nc2ccc(Cl)c3c(Cl)c[nH]c23)c(F)c1"
Return: > 6.00

Enquiry: Look up and report measured pEC50 for this entry: "Cc1ccc(CCNC(=O)c2ccc(S(=O)(=O)Nc3ccc(Cl)c4c(Cl)c[nH]c34)c(F)c2)o1"
Return: 5.00 to 6.00

Enquiry: Look up and report measured pEC50 for this entry: "CC(C)(C)OC(=O)N1CCC2(CC1)CN(C(=O)c1ccc(S(=O)(=O)Nc3ccc(Cl)c4c(Cl)c[nH]c34)c(F)c1)CCO2"
Return: 5.00 to 6.00

----------
target: DCAF15 (Homo sapiens, UniProt Q66K64); assay: HTRF competition assay, binary interaction between compounds and DCAF15; conditions: competition with Alexa Fluor 647 tracer, His-tagged DCAF15 complex
Reported IC50 is given for each of the following molecules.

Below: 3 molecules and their reported IC50.
Enquiry: Look up and report measured IC50 for this entry: "CCOc1cc(N2CCC[C@H](COc3cccc(S(=O)(=O)Nc4ccc(Cl)c5c(Cl)c[nH]c45)c3)C2)ncn1"
Return: > 100 µM

Enquiry: Look up and report measured IC50 for this entry: "CCc1nc(CN(C)C(=O)c2ccc(S(=O)(=O)Nc3ccc(Cl)c4c(Cl)c[nH]c34)c(F)c2)no1"
Return: 1 to 10 µM

Enquiry: Look up and report measured IC50 for this entry: "O=C(NCCOCC1CC1)c1ccc(S(=O)(=O)Nc2ccc(Cl)c3c(Cl)c[nH]c23)c(F)c1"
Return: 1 to 10 µM

// moving on: another record for IC50
Enquiry: Look up and report measured IC50 for this entry: "Cn1cc(CCOc2ccc(S(=O)(=O)Nc3ccc(Cl)c4c(Cl)c[nH]c34)cc2)c2ccccc21"
Return: > 100 µM

----------
biological target: DCAF15/RBM39 (Homo sapiens, UniProt Q14498+Q66K64); assay: AlphaLISA compound-induced DCAF15-RBM39 ternary complex formation; details: His-tagged DCAF15 complex and biotin-carrying RBM39
pEC50: −log10 of the molar value.
Reported pEC50 is given for each of the following molecules.

Enquiry: System DCAF15/RBM39 (Homo sapiens, UniProt Q14498+Q66K64). Read-out pEC50. Item "O=S(=O)(Nc1ccc(Cl)c2c(Cl)c[nH]c12)c1cccc(OCCCN2CC3(COC3)C2)c1" . Report value.
Return: > 6.00

Enquiry: System DCAF15/RBM39 (Homo sapiens, UniProt Q14498+Q66K64). Read-out pEC50. Item "O=S(=O)(Nc1ccc(Cl)c2c(Cl)c[nH]c12)c1ccc(Oc2ccccc2)c(Cl)c1" . Report value.
Return: 5.00 to 6.00

Enquiry: System DCAF15/RBM39 (Homo sapiens, UniProt Q14498+Q66K64). Read-out pEC50. Item "O=S(=O)(Nc1ccc(Cl)c2c(Cl)c[nH]c12)c1ccc(Oc2ccc(F)cc2)cc1" . Report value.
Return: 5.00 to 6.00

Enquiry: System DCAF15/RBM39 (Homo sapiens, UniProt Q14498+Q66K64). Read-out pEC50. Item "O=C(NCCc1ccccn1)c1ccc(S(=O)(=O)Nc2ccc(Cl)c3c(Cl)c[nH]c23)c(F)c1" . Report value.
Return: > 6.00

Enquiry: System DCAF15/RBM39 (Homo sapiens, UniProt Q14498+Q66K64). Read-out pEC50. Item "Cc1ccc(CCNC(=O)c2cccc(S(=O)(=O)Nc3ccc(Cl)c4c(Cl)c[nH]c34)c2F)o1" . Report value.
Return: 5.00 to 6.00

Enquiry: System DCAF15/RBM39 (Homo sapiens, UniProt Q14498+Q66K64). Read-out pEC50. Item "O=C1CC[C@H](NC(=O)c2ccc(S(=O)(=O)Nc3ccc(Cl)c4c(Cl)c[nH]c34)c(F)c2)CN1" . Report value.
Return: > 6.00

Enquiry: System DCAF15/RBM39 (Homo sapiens, UniProt Q14498+Q66K64). Read-out pEC50. Item "O=C(c1cccc(S(=O)(=O)Nc2ccc(Cl)c3c(Cl)c[nH]c23)c1)N1CCOCC1" . Report value.
Return: > 6.00

Enquiry: System DCAF15/RBM39 (Homo sapiens, UniProt Q14498+Q66K64). Read-out pEC50. Item "O=S(=O)(Nc1ccc(Cl)c2c(Cl)c[nH]c12)c1cccc(OC[C@H]2[C@@H]3CNC[C@@H]32)c1" . Report value.
Return: > 6.00

Enquiry: System DCAF15/RBM39 (Homo sapiens, UniProt Q14498+Q66K64). Read-out pEC50. Item "CC1(Oc2ccc(S(=O)(=O)Nc3ccc(Cl)c4c(Cl)c[nH]c34)cc2)CCN(CCO)CC1" . Report value.
Return: > 6.00

Enquiry: System DCAF15/RBM39 (Homo sapiens, UniProt Q14498+Q66K64). Read-out pEC50. Item "O=S(=O)(Nc1ccc(Cl)c2c(Cl)c[nH]c12)c1cccc(OC[C@@H]2CCCNC2)c1" . Report value.
Return: > 6.00

Enquiry: System DCAF15/RBM39 (Homo sapiens, UniProt Q14498+Q66K64). Read-out pEC50. Item "CC(C)(C)OC(=O)NC1(CNC(=O)c2cccc(S(=O)(=O)Nc3ccc(Cl)c4c(Cl)c[nH]c34)c2F)CC1" . Report value.
Return: 5.00 to 6.00

Enquiry: System DCAF15/RBM39 (Homo sapiens, UniProt Q14498+Q66K64). Read-out pEC50. Item "Cn1cc(CCOc2ccc(S(=O)(=O)Nc3ccc(Cl)c4c(Cl)c[nH]c34)cc2)c2ccccc21" . Report value.
Return: < 4.00

Enquiry: System DCAF15/RBM39 (Homo sapiens, UniProt Q14498+Q66K64). Read-out pEC50. Item "O=C(NCCCC(=O)N1CCCC1)c1cccc(S(=O)(=O)Nc2ccc(Cl)c3c(Cl)c[nH]c23)c1F" . Report value.
Return: > 6.00

Enquiry: System DCAF15/RBM39 (Homo sapiens, UniProt Q14498+Q66K64). Read-out pEC50. Item "O=C(NCCCOCc1ccccc1)c1cccc(S(=O)(=O)Nc2ccc(Cl)c3c(Cl)c[nH]c23)c1F" . Report value.
Return: 5.00 to 6.00

Enquiry: System DCAF15/RBM39 (Homo sapiens, UniProt Q14498+Q66K64). Read-out pEC50. Item "O=S(=O)(Nc1ccc(Cl)c2c(Cl)c[nH]c12)c1ccc(OC2CC3(CNC3)C2)cc1" . Report value.
Return: > 6.00

Enquiry: System DCAF15/RBM39 (Homo sapiens, UniProt Q14498+Q66K64). Read-out pEC50. Item "CNCCCCCCOc1ccc(S(=O)(=O)Nc2ccc(Cl)c3c(Cl)c[nH]c23)cc1" . Report value.
Return: > 6.00

Enquiry: System DCAF15/RBM39 (Homo sapiens, UniProt Q14498+Q66K64). Read-out pEC50. Item "O=S(=O)(Nc1ccc(Cl)c2c(Cl)c[nH]c12)c1ccc(OCc2cccc(OC(F)F)c2)cc1" . Report value.
Return: 5.00 to 6.00

Enquiry: System DCAF15/RBM39 (Homo sapiens, UniProt Q14498+Q66K64). Read-out pEC50. Item "CC1(CCOc2cccc(S(=O)(=O)Nc3ccc(Cl)c4c(Cl)c[nH]c34)c2)CCNCC1" . Report value.
Return: > 6.00

Enquiry: System DCAF15/RBM39 (Homo sapiens, UniProt Q14498+Q66K64). Read-out pEC50. Item "CN(C)C(=O)c1ccc(CCNC(=O)c2cccc(S(=O)(=O)Nc3ccc(Cl)c4c(Cl)c[nH]c34)c2F)cc1" . Report value.
Return: 5.00 to 6.00

Enquiry: System DCAF15/RBM39 (Homo sapiens, UniProt Q14498+Q66K64). Read-out pEC50. Item "CN1CCN(C(=O)c2ccc(S(=O)(=O)Nc3ccc(Cl)c4c(Cl)c[nH]c34)cc2)CC1" . Report value.
Return: > 6.00
